- experimental_system: furin, P09958;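 also: purified furin at 1:10 enzyme:substrate in 50 mM HEPES pH 7.5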
- Sequence (P09958 whole entry): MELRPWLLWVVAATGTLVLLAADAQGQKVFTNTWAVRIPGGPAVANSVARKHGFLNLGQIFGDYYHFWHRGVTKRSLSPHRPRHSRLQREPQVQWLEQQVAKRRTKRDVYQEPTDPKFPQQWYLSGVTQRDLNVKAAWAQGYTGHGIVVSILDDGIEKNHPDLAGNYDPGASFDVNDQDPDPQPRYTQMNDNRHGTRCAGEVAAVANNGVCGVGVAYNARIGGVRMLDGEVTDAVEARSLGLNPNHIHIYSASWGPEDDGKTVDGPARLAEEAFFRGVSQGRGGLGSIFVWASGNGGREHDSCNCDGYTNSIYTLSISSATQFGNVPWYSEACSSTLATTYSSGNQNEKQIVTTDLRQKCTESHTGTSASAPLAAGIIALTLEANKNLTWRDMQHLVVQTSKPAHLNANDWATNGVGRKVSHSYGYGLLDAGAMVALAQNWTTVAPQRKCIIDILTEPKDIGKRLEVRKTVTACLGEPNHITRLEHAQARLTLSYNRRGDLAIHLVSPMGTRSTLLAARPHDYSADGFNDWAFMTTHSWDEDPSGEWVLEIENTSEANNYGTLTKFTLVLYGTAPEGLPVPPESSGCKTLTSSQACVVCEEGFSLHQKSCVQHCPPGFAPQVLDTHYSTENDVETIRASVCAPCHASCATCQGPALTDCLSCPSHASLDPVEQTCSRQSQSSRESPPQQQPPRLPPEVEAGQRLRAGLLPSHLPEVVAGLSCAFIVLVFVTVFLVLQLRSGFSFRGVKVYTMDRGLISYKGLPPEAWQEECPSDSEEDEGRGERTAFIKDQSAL
- protocol_details: furin cleavage Z-score vs untreated control; higher = more cleavage, active = 3.5 or more, inactive = 1 or less, 8 variable residues between constant flanks
- test_settings: 15 min
The other results are listed elsewhere or left out. How many sequences the whole screen found active is unknown.
furin cleavage Z-score overview
I only need the number, thanks.

Return reported furin cleavage Z-score; argument: CAPLKRSVSLAGNASASA [FS-2876]
2.22
